I'd appreciate it if you could supply AC50 values for the items below.
test system: INS-1E rat beta cells, no cytokines, CellTiter-Glo ATP, 48 h; assay: cytokine-free beta-cell viability effect – INS-1E rat cells, ATP luminescence, cherry pick, counter-screen for beta-cell apoptosis protection project, dose response (AID 463229)

## Input What value of AC50 has been recorded for this entry: Cc1cc(N2CCN(c3nc4ccccc4s3)CC2)n2ncnc2n1
## Output 7.32 µM

## Input What value of AC50 has been recorded for this entry: COc1ccc(-c2csc(NC(=O)C3CCN(c4ncnc5sc(C)c(C)c45)CC3)n2)cc1OC
## Output 4.88 µM

## Input What value of AC50 has been recorded for this entry: COc1ccc(C(CCN2CCCCC2)c2c(OC)cc(OC)c3c(-c4ccccc4)cc(=O)oc23)cc1 (stereo unspecified)
## Output 14.1 µM

## Input What value of AC50 has been recorded for this entry: CC1CCC/C=C/C2CC(O)CC2C(O)/C=C/C(=O)O1 (stereo unspecified)
## Output 0.759 µM

## Input What value of AC50 has been recorded for this entry: CCc1ccc(S(=O)(=O)/N=C2\C=C(Nc3ccc(O)cc3)C(=O)c3ccccc32)cc1
## Output 2.21 µM

## Input What value of AC50 has been recorded for this entry: Cc1cc(NC2CCCCC2)nc(NCc2ccccc2)n1
## Output 3.71 µM

## Input What value of AC50 has been recorded for this entry: Cc1cc[n+](C(C)C(=O)c2ccc(-c3ccccc3)cc2)cc1 (stereo unspecified)
## Output 3.81 µM

## Input What value of AC50 has been recorded for this entry: Cc1ccc(NC(=O)c2nc(S(=O)(=O)Cc3ccccc3)ncc2Cl)cc1
## Output 15.3 µM

## Input What value of AC50 has been recorded for this entry: CCCCCCCCCCCCCCCC[N+](C)(C)C
## Output 7.81 µM

## Input What value of AC50 has been recorded for this entry: CC(=O)C1=C(c2ccc(Br)cc2)C(=O)c2ccccc2C1=O
## Output 3.63 µM

## Input What value of AC50 has been recorded for this entry: COc1ccc(CC2(CO)CCN(CC3=Cc4cc(Cl)ccc4OC3)CC2)cc1
## Output 4.18 µM
